The values you see were collected from patent US11897880B2.

Below, each entry is listed alongside its reported pIC50.
Target: UniProt P03951
Sequence (P03951 388-625 limits assumed): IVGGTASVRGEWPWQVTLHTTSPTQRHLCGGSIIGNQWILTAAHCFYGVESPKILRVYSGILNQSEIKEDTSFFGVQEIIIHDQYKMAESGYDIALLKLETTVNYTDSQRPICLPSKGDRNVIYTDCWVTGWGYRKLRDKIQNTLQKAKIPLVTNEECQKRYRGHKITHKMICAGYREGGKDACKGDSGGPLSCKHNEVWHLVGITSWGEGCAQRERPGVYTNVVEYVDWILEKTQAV
Sequence (P03951 19-387 partner limits assumed): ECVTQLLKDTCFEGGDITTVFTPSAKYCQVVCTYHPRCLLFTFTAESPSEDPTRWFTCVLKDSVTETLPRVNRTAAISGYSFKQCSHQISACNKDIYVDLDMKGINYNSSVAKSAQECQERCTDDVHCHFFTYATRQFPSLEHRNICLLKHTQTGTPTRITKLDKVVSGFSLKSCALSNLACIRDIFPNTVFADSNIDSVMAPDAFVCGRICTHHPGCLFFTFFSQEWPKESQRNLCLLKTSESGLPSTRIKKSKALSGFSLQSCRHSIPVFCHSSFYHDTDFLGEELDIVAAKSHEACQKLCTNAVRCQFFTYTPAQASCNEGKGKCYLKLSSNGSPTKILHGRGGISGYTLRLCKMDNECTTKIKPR
Experiment: Factor XIa inhibition assay utilizing a fluorophore-quencher pair peptide substrate (FLINT)
Assay type: biochemical
Conditions: 30 min preincubation, 5Fam-KLTRAETV-K5Tamra substrate 15 μM final, kinetic reads; read-out: FXIa IC50
Please note pIC50 is a logarithmic value: minus log10 of concentration in mol/L. Answer with that number alone.

Illustrative cases are given below, each with its answer.
molecule="O=C1NC2(CC2)Cc2ccc(Cl)c(F)c2-c2cc(=O)n3c(c21)CC[C@H]3c1ncc(-c2ccn3ccnc3c2)[nH]1 (stereo in doubt) [Compound 7]" observed_value=8.64
molecule="Nc1ccc(-c2cnc([C@H]3CCc4c5c(cc(=O)n43)-c3c(ccc(Cl)c3F)CCNC5=O)[nH]2)c(F)n1 (stereo in doubt) [Compound 47]" observed_value=8.30
molecule="Cc1nc2cc(-c3cnc([C@H]4CCc5c6c(cc(=O)n54)-c4c(ccc(Cl)c4F)CC4(CC4)NC6=O)[nH]3)ccc2s1 (stereo in doubt) [Compound 5]" observed_value=8.68

Field pIC50 (entry O=C1NC2(CC2)Cc2ccc(Cl)c(F)c2-c2cc(=O)n3c(c21)CC[C@@H]3c1ncc(-c2ccc3scnc3c2)[nH]1 (stereo in doubt) [Compound 26] ) reads 9.30
